ASSAYED_TARGET: T1, monkey 4-1BB on CHOK1 cells (monkey)
T1 construct: whole, on cells; also called CHOK1-c4-1BB
METHOD_NOTES: FACS, CHOK1-c4-1BB cells; Ab 0.4 ug/ml
Listing of recorded average fluorescence intensity by entry.

BINDER: 113F6C6 (antibody, V domains shown, also called 4-1BB fully human antibody 113F6C6; 113F6F6) VH: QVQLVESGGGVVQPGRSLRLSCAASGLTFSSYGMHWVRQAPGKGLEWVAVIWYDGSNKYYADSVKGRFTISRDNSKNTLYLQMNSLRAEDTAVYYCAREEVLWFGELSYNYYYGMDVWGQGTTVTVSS VL: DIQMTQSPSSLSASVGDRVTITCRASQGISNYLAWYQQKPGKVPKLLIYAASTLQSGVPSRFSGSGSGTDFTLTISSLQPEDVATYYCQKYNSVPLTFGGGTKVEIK
ENDPOINT_RESULT: 357 MFI

get_value(item= 52F4G2 (antibody, V domains shown) VH: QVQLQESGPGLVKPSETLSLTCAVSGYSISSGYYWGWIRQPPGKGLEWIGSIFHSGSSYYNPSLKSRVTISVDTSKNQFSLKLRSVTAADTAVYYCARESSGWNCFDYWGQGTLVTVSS VL: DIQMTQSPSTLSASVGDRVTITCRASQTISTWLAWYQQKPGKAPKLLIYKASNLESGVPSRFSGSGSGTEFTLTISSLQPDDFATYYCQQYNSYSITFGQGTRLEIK , readout=average fluorescence intensity) returns 469 MFI

get_value(item= 119B6G5 (antibody, V domains shown) VH: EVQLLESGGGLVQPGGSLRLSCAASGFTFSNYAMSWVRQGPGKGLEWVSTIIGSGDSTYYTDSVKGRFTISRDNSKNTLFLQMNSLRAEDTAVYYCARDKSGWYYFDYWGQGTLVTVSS VL: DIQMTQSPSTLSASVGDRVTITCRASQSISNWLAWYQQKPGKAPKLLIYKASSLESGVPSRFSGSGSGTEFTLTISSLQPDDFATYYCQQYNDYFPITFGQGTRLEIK , readout=average fluorescence intensity) returns 944 MFI

get_value(item= 15G10D4 (antibody, V domains shown) VH: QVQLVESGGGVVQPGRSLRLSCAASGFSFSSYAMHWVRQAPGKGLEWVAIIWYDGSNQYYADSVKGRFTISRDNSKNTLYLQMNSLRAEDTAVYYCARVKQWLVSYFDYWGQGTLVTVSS VL: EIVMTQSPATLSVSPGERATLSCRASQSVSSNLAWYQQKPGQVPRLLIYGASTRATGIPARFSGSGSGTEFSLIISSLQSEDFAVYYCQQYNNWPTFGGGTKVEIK , readout=average fluorescence intensity) returns 359 MFI

get_value(item= 11H10C9 (antibody, V domains shown) VH: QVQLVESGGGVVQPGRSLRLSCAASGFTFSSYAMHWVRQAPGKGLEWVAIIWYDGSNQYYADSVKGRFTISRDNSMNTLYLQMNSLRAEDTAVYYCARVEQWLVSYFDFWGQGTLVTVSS VL: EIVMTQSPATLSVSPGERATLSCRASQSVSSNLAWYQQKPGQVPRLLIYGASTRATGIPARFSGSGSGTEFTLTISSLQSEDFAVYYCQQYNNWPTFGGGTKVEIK , readout=average fluorescence intensity) returns 298 MFI

Value source: patent US20200347144A1
